assay-target: T1, SNTG2, Q9NY99
T1 sequence (Q9NY99 68-166, limits assumed, looked up): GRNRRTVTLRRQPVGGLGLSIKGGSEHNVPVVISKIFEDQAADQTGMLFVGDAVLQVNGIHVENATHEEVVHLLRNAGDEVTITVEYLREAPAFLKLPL
procedure-summary: holdup assay
Set-up: key: below the threshold = too weak to quantify, mostly under pKd 3.1 to 4
measurement-context: plain residues with an end cap or a label only (N-terminal biotin on a linker: ado-ado)
Please respond with reported pKd for every item in the list.
Answers are plain numbers.

Record excerpt, results attached:
{"binder": "TGLWKHETTV [ADGRA3, Q8IWK6]", "pKd": 4.25}
{"binder": "SPDRDRESIV [SCN5A, Q14524]", "pKd": 4.69}
{"binder": "EIPAQSPTCV [FZD10, Q9ULW2]", "pKd": 3.85}
{"binder": "TNSRHGETTV [FZD2, Q14332]", "pKd": 4.29}
{"binder": "DTKNYKQTSV [CRIPT, Q9P021]", "pKd": 4.37}

Batch request: pKd for each of the following binders.
1. NIAESLESLV [PTPRZ1, P23471]
2. DFLSTFHIRI [CIB2, O75838]
3. DGVNEKVSCV [HTR2A, P28223]
4. ARGPPRESEV [FAM110D, Q8TAY7]
5. REEPDHSTEV [CCRL2, O00421]

Reply |
4.34
3.62
3.69
4.4
3.73
